# MEASURED ON: NS3h WT (T7 Shuffle) (dengue virus 4, UniProt P09866 1646-2092)
# Sequence (P09866 1646-2092): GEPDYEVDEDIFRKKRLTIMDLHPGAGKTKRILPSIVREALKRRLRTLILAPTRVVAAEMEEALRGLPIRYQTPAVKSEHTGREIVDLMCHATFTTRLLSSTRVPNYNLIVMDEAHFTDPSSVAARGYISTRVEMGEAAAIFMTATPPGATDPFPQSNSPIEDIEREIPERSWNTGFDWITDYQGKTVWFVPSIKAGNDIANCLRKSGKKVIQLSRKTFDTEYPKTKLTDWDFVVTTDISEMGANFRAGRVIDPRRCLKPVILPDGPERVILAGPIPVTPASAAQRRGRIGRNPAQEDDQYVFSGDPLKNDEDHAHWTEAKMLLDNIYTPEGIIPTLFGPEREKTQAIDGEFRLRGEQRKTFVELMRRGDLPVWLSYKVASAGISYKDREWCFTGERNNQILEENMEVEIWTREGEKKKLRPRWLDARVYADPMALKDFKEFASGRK
# MEASUREMENT DESCRIPTION: fluorescence polarization
REPORTED METRIC: Kd (µM)
Only the number, expressed in µM, is required.

Query block: Item AGUAA (ssRNA, 5'-diphosphate (pp (so in the source))) [ppAGUAA Alexa-488 RNA oligo] has what recorded Kd?
Result block: 3.4
